# Study system: T1, human IL-17A/F heterodimer, bacterially expressed construct (human, UniProt Q16552 40-155; Q96PD4 39-163, limits assumed)
# T1 construct: IL-17A unit with N68D, IL-17F unit with N83D and C137S, both with GSEDS spacer; already in the entries
# T1 sequence (Q16552 40-155 N68D limits assumed, chain 1 of 2): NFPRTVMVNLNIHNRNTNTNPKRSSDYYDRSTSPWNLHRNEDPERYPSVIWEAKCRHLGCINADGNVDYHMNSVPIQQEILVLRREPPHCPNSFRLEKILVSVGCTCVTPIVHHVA
# T1 sequence (Q96PD4 other isoform, or with tags, fused parts or gaps limits assumed, chain 2 of 2): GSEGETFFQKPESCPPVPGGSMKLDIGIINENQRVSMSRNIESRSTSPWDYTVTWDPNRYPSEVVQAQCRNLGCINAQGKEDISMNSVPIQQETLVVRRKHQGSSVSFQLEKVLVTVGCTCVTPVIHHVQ
# Experiment summary: BLI, biotinylated VHH immobilized on streptavidin sensors, IL-17 as analyte (10, 20, 40 nM), mass transport fit; apparent value, avidity possible;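 further: wavelength shift (nm) signal, 800 s association then 800 s dissociation, reference from parallel sensors without VHH, avidity from immobilized VHH may lower apparent off-rates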
Assay endpoint: koff

INSERT INTO results (binder, result) VALUES
  ('Re42B04 with C-terminal Avi-Biotin-tag, biotinylated (VHH, biotin on the C-terminal Avi-tag (BirA), not shown: C-terminal Avi-Biotin-tag) VHH: QVQLVESGGGLVQVGGSLRLSCEVSGLPVSSYAMGWFRQAPEKEREFVAAISWIGGDSRYAHFVKGRFTISRDNAKNTVHLQMDSLKPEDTAVYYCNDMPYGLDTRMDEYEYWGLGTQVTVSS', '≤ 1e-07 s⁻¹'),
  ('Bm18F11 with C-terminal Avi-Biotin-tag, biotinylated (VHH, biotin on the C-terminal Avi-tag (BirA), not shown: C-terminal Avi-Biotin-tag) VHH: QVQLVESGGDLVQAGGSLRLSCAASGLTGSSYAMGWFRQAPGKEREFVAAISWISGDTKYTDSVKGRFTMSRDNAKKQVYLEMNSLKPEDTAVYYCNDMPYGLDTRMDEYVYWGQGTQVTVSS', '≤ 1e-07 s⁻¹');
